- PROTOCOL DETAILS: Luminescence Cell-Based Dose Retest to Confirm Inhibitors of Cancer Stem Cells. [Related pubchem assays (depositor defined):AID2717, AID2721];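 also: cells exposed to compound for roughly 70 hours or longer before luminescence read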
- Type: functional, Homo sapiens
- ASSAY SETUP: Homo sapiens
Activity calls are given as the source filed them. Rule as the data show it: actives have a measured AC50 and inactives only a lower limit.
Below: a set of entries, each annotated with reported AC50.

Below, each entry is followed by its recorded AC50 result.
COMPOUND	RESULT
CN1/C(=C\C(=O)Nc2ccc(Br)cc2)C(C)(C)c2ccccc21	5.09 µM (active)
CC(C)=CCCC1(C)C=Cc2c(ccc3c2[nH]c2cc(O)c(C)cc23)O1 (stereo not given)	2.9 µM (active)

Inquiry: Let me know recorded AC50 for O=c1cc(N2CCCCC2)c(-c2ccccc2)nn1Cc1c(Cl)cccc1Cl , thanks.
Reply text: 4.43 µM (active)

Inquiry: Let me know recorded AC50 for O=c1cc(-c2ccccc2)[nH]n1-c1nc2ccccc2s1 , thanks.
Reply text: 2.45 µM (active)

Inquiry: Let me know recorded AC50 for Cc1cc(C)c(OCCCCN2CCNCC2)c(C)c1 , thanks.
Reply text: 3.23 µM (active)

Inquiry: Let me know recorded AC50 for O=C1NC(=O)N(CCc2ccc(F)cc2)C(=O)/C1=C/C=C/c1ccccc1 , thanks.
Reply text: 1.05 µM (active)

Inquiry: Let me know recorded AC50 for Cc1ccc(S(=O)(=O)N(CC(=O)N=Nc2c(O)[nH]c3ccccc23)c2cccc(C)c2)cc1 , thanks.
Reply text: 4.85 µM (active)

Inquiry: Let me know recorded AC50 for COc1cc(OC)cc(-c2nnc(SCC(=O)N(Cc3ccccc3)C(C)(C)C)o2)c1 , thanks.
Reply text: 0.618 µM (active)

Inquiry: Let me know recorded AC50 for Cc1ccc(S(=O)(=O)Nc2ccccc2-c2ccccc2NS(=O)(=O)c2ccc(C)cc2)cc1 , thanks.
Reply text: 6.86 µM (active)

Inquiry: Let me know recorded AC50 for Cc1ccc(C(=O)C(C(=O)/C=C/c2ccccc2)=C2SCCCS2)cc1 , thanks.
Reply text: 1.24 µM (active)
